Each entry below lists one item and its recorded RARα/RARβ ratio (*) value.
target-or-test-system: RARα (Homo sapiens, UniProt P10276)
Construct: gal4 (fusion partner); expressed in transfected cells; host or cells: COS-7
Sequence (P10276 183-417 limits assumed): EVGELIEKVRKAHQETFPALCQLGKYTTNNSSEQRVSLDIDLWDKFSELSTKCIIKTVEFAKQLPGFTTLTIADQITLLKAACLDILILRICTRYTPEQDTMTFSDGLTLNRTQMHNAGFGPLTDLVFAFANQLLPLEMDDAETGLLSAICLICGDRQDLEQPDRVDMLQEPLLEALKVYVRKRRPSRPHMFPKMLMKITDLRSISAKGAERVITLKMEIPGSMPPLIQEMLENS
experiment-description: Transactivation assay for RAR alpha (gal4-RAR fusion, luciferase reporter, COS-7 cells)
Format: cell-based
condition-summary: fold-selectivity for RARα over RARβ

Record excerpt, results attached:
compound	RARα/RARβ ratio (*)
COc1c(Cl)cc(C(=O)Nc2ccc(C(=O)O)c(C)c2)cc1OC1CCC1 [AAA-099]	59
COc1c(Cl)cc(C(=O)Nc2ccc(C(=O)O)c(F)c2)cc1OC1CCC1 [AAA-100]	99
Cc1cc(NC(=O)c2cc(Cl)c(OC3CCCC3)c(Cl)c2)ccc1C(=O)O [AAA-054]	36
O=C(Nc1ccc(C(=O)O)c(O)c1)c1cc(Cl)c(OC2CCC2)c(OC2CCC2)c1 [AAA-094]	2852
COc1c(Cl)cc(C(=O)Nc2ccc(C(=O)O)cc2F)cc1C(F)(F)F [AAA-067]	6

Report its RARα/RARβ ratio (*) with RARα (Homo sapiens, UniProt P10276) as the test system: CCOc1c(Cl)cc(C(=O)Nc2ccc(C(=O)O)c(C)c2)cc1OCC1CC1 [AAA-097]
58
